B1: NELF-E aptamer (parent)
chain: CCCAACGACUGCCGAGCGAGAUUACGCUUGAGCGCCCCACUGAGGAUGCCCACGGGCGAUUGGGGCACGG

Variants of: B1
protocol summary: HiTS-RAP
conditions used: with NELF-E (Drosophila)
pKd: −log10 of the molar value.
Decide using pKd: a value greater than or equal to 8 is 1, a smaller one is 0.

Answered cases to consult:
- variant notation: "C6G A21U"
  qualitative label: 1
- variant notation: "A5U C6U"
  qualitative label: 1
- variant notation: "A8U U28A"
  qualitative label: 1

Task: Test whether the variant G16U G30A records pKd of 8 or higher.
Result: 1

Task: Test whether the variant U10G U41C records pKd of 8 or higher.
Result: 0
